- Target entity: YAP-TEAD interaction (Homo sapiens, UniProt P28347)
- Sequence (P28347 whole entry, the tested form may be a part): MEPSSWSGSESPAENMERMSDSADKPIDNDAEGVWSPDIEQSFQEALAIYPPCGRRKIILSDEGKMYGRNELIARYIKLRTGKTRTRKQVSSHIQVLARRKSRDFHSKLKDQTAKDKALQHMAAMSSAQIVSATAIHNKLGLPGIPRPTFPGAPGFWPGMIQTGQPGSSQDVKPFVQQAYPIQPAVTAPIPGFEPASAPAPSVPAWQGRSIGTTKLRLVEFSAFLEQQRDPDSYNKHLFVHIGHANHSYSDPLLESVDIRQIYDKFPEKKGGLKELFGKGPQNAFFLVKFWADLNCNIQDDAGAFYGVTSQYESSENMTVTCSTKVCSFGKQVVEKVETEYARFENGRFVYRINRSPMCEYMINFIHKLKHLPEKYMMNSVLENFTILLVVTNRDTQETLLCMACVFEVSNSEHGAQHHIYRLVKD
- Protocol notes: Cell-based TEAD-GAL4 transactivation assay (luciferase reporter)
- Run conditions: HEK293 cells transfected with TEAD1-Gal4, YAP mutant (S127A, S397A) and luciferase reporter; compounds 0.1 μM to 30 μM, 24 h
Measured attribute: IC50

QUERY: Reported IC50 for CN(/N=C/c1ccc2c(c1)COB2O)c1ncnc2c1CCC(=O)N2 : what is it?
RESULT: 1410 nM

====

- Target entity: YAP-TEAD interaction (Homo sapiens, UniProt P28347)
- Construct: expressed in transfected cells; host or cells: HEK293 GripTite 293 MSR (Invitrogen R795-07)
- Protocol notes: Cell-based TEAD-GAL4 transactivation assay (luciferase reporter)
- Run conditions: HEK293, 24 h, HEK293 cells transfected with TEAD1-Gal4, YAP mutant (S127A, S397A) and luciferase reporter, compounds 0.1 μM to 30 μM, read-out: TEAD-GAL4 Transactivation activity Max Act
Structures can show the parent of a compound that is named as a salt.
Measured attribute: Emax (%)
Use % as the unit, but write only the number.

Check out these entries, answers already filled in.
COc1cc(C2=NN(c3ncnc4c(OC)cccc34)C(C)CC2)ccc1B(O)O (single isomer, unassigned; isomer 1) [Ex124]
93
CC(C)CN(/N=C/c1ccc2c(c1)COB2O)c1ncnc2ccsc12
87
CC(C)CN(/N=C/c1ccc(B(O)O)c(Cl)c1)C1=NS(=O)(=O)c2ccccc21
62
CCN(/N=C/c1ccc2c(c1)COB2O)c1ncnc2ncsc12
82
CCN(/N=C/c1ccc2c(c1)COB2O)c1ncnc2c(C(=O)N(C)C)csc12
70

QUERY: Reported Emax for COc1cc(C2=NN(c3ncnc4c(OC)cccc34)C(C)CC2)ccc1B(O)O (stereo not drawn) [Ex 55] : what is it?
RESULT: 92

QUERY: Reported Emax for Cc1ccc2c(c1)C(N(CC(C)C)/N=C/c1ccc3c(c1)COB3O)=NS2(=O)=O : what is it?
RESULT: 91

QUERY: Reported Emax for CN(/N=C/c1ccc2c(c1)COB2O)c1ncnc2c(-c3ccccc3)csc12 : what is it?
RESULT: 87

QUERY: Reported Emax for COc1ccc2c(c1)C(N(CC(C)C)/N=C/c1ccc(B(O)O)c(OC)c1)=NS2(=O)=O : what is it?
RESULT: 95

QUERY: Reported Emax for CN(/N=C/c1ccc2c(c1)COB2O)c1ncnc2c1[nH]c(=O)n2C1CCC1 : what is it?
RESULT: 87

QUERY: Reported Emax for CN(/N=C/c1ccc2c(c1)COB2O)c1ncnc2c1[nH]c(=O)n2C12CC(C1)C2 : what is it?
RESULT: 81

QUERY: Reported Emax for CN(/N=C/c1ccc2c(c1)COB2O)c1ncnc2c1[nH]c(=O)n2C1CC(O)C1 (stereo not drawn) [Ex109, hydrochloride] : what is it?
RESULT: 86

====

- Target entity: YAP-TEAD interaction (Homo sapiens)
- Construct: expressed in transfected cells; host or cells: HEK293 GripTite 293 MSR (Invitrogen R795-07)
- Protocol notes: Cell-based TEAD-GAL4 transactivation assay (luciferase reporter)
- Run conditions: HEK293, 24 h, HEK293 cells transfected with TEAD1-Gal4, YAP mutant (S127A, S397A) and luciferase reporter, compounds 0.1 μM to 30 μM, read-out: TEAD-GAL4 Transactivation activity Max Act
Is Emax at least 80%? Then Fulfilled. If not, Not fulfilled.

Field: example entries. Status: answers known.
COc1cc(/C=N/N(CC(C)C)C2=NS(=O)(=O)c3ccccc32)ccc1B1OC(=O)CN(C)CC(=O)O1 [Ex 61]
Fulfilled
CSc1nc2ncnc(N3N=C(c4ccc5c(c4)COB5O)CCC3C)c2s1 (stereo not shown) [Ex123]
Fulfilled
CSc1nc2ncnc(N(C)/N=C/c3ccc4c(c3)COB4O)c2s1 [Ex75]
Fulfilled

QUERY: Could you please find out whether CCN(/N=C/c1ccc(B(O)O)c(OC)c1)c1ncnc2occc12 [Ex65] has Emax that meets 80% or exceeds it?
RESULT: Fulfilled

QUERY: Could you please find out whether CCN(/N=C/c1ccc(B(O)O)c(OC)c1)C1=NS(=O)(=O)c2ccccc21 [Ex 4] has Emax that meets 80% or exceeds it?
RESULT: Not fulfilled

QUERY: Could you please find out whether COc1cc(OC)c2ncnc(N(CC(C)C)/N=C/c3ccc(B(O)O)c(OC)c3)c2c1 [Ex 17] has Emax that meets 80% or exceeds it?
RESULT: Fulfilled

QUERY: Could you please find out whether CCN(/N=C/c1ccc2c(c1)COB2O)c1ncnc2c(C(=O)NCCCCOC)csc12 [Ex116] has Emax that meets 80% or exceeds it?
RESULT: Fulfilled

QUERY: Could you please find out whether COc1ccc2c(c1)S(=O)(=O)N=C2N(CC(C)C)/N=C/c1ccc2c(c1)COB2O [Ex 30] has Emax that meets 80% or exceeds it?
RESULT: Fulfilled

====

- Target entity: YAP-TEAD interaction (Homo sapiens, UniProt P28347)
- Protocol notes: Cell-based TEAD-GAL4 transactivation assay (luciferase reporter)
- Run conditions: HEK293 cells transfected with TEAD1-Gal4, YAP mutant (S127A, S397A) and luciferase reporter; compounds 0.1 μM to 30 μM, 24 h
- Procedure: To identify inhibitors of YAP-TEAD interaction, a transient transactivation assay was carried out on HEK293 cell line (HEK293 GripTite™ 293 MSR (Invitrogen R795-07)) using plasmids containing the full length TEAD1 sequences, the full length YAP mutant (S127A, S397A) and a luciferase gene reporter. […] 24 h later, the luciferase activity was determined after addition of 100 μl of Steady Glo™ luciferase assay system (Promega E2550) according to the manufacturer's directions. […]
Consider the following compounds and their measured IC50 readings.
Use nM as the unit, but write only the number.

Cc1csc2c(N(CC(C)C)/N=C/c3ccc4c(c3)COB4O)ncnc12
710
CCN(/N=C/c1ccc2c(c1)COB2O)c1ncnc2c3c(sc12)CCCC3
640
CC(C)CN(/N=C/c1ccc2c(c1)COB2O)c1ncnc2ccsc12
1360
COCCN(/N=C/c1ccc(B(O)O)c(OC)c1)c1ncnc2ccsc12
1880
COc1cc(C2=NN(c3ncnc4cc(F)ccc34)CC(C)O2)ccc1B(O)O (centres unmarked)
2360

QUERY: Reported IC50 for COCCN(/N=C/c1ccc(B(O)O)c(OC)c1)C1=NS(=O)(=O)c2ccccc21 : what is it?
RESULT: 7100

QUERY: Reported IC50 for CCN(/N=C/c1ccc2c(c1)COB2O)c1ncnc2c(OC)cccc12 : what is it?
RESULT: 1120

QUERY: Reported IC50 for CCN(/N=C/c1ccc2c(c1)COB2O)c1ncnc2c1ccn2CC : what is it?
RESULT: 610

QUERY: Reported IC50 for CC1CCC(c2ccc3c(c2)COB3O)=NN1C1=NS(=O)(=O)c2ccccc21 (centres unmarked) : what is it?
RESULT: 3040

QUERY: Reported IC50 for CC1CCC(c2ccc3c(c2)COB3O)=NN1c1ncnc2ccsc12 (centres unmarked) : what is it?
RESULT: 720

====

Measured attribute: melting point

Check out these entries, answers already filled in.
COCCN(/N=C/c1ccc2c(c1)COB2O)c1ncnc2c(C)csc12
240 to 253 °C
CSc1nc2ncnc(N(C)/N=C/c3ccc4c(c3)COB4O)c2s1
262 to 286 °C
Cc1ccc2c(c1)S(=O)(=O)N=C2N(CC(C)C)/N=C/c1ccc2c(c1)COB2O
182 °C
CCN(/N=C/c1ccc2c(c1)COB2O)C1=NS(=O)(=O)c2ccccc21
218 °C
Cc1csc2c(N(C)/N=C/c3ccc4c(c3)COB4O)ncnc12
231 °C

QUERY: Reported melting point for COCCN(/N=C/c1ccc2c(c1)COB2O)C1=NS(=O)(=O)c2ccccc21 : what is it?
RESULT: 227 °C

QUERY: Reported melting point for CCN(/N=C/c1ccc2c(c1)COB2O)c1ncnc2c(C)n[nH]c12 : what is it?
RESULT: 265 to 276 °C

QUERY: Reported melting point for CSc1nc2ncnc(N(CC(C)C)/N=C/c3ccc4c(c3)COB4O)c2s1 : what is it?
RESULT: 214 to 246 °C

QUERY: Reported melting point for CCN(/N=C/c1ccc2c(c1)COB2O)c1ncnc2nc(N3CCOCC3)sc12 : what is it?
RESULT: 183 to 189 °C

QUERY: Reported melting point for CN(/N=C/c1ccc2c(c1)COB2O)c1ncnc2c1[nH]c(=O)n2C12CC(C1)C2 : what is it?
RESULT: 259 to 270 °C

QUERY: Reported melting point for CCN(/N=C/c1ccc2c(c1)COB2O)c1ncnc2nc(SC)sc12.Cl : what is it?
RESULT: 248 to 264 °C
